# TARGET_SYSTEM: Angiotensin-converting enzyme (Homo sapiens, UniProt P12821)
# Sequence (P12821 whole entry): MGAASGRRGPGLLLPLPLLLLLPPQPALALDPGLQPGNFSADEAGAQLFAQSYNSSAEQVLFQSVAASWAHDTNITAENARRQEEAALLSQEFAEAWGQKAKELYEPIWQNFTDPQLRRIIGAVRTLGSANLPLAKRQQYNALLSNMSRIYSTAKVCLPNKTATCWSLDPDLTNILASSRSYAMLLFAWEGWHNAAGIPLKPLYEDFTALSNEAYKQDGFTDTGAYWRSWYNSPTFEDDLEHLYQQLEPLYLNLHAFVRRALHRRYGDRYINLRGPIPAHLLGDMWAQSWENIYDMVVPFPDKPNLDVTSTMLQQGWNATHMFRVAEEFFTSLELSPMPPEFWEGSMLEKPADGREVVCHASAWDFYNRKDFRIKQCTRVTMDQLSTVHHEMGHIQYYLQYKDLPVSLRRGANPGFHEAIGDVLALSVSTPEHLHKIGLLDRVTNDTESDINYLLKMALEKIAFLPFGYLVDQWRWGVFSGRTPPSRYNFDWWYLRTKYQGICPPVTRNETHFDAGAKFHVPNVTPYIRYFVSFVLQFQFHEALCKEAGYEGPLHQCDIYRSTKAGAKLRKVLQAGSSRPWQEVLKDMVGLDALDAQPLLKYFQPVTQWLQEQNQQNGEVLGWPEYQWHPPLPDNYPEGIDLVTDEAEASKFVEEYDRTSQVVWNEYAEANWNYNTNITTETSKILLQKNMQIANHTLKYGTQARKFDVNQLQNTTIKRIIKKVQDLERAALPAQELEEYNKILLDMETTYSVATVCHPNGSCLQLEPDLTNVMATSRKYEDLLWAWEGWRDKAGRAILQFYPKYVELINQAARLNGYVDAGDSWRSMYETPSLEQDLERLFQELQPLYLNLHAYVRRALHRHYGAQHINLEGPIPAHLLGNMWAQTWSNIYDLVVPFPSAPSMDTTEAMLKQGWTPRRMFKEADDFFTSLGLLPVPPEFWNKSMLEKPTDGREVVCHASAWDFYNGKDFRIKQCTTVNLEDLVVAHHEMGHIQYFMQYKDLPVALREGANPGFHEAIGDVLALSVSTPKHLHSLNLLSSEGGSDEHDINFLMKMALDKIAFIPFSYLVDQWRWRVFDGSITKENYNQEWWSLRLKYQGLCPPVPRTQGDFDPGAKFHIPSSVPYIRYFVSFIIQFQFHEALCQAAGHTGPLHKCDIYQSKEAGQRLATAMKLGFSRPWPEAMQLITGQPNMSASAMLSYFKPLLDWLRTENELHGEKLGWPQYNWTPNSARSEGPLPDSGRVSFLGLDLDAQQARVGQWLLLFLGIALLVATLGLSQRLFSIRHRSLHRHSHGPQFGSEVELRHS
# ASSAY: Inhibitory activity against Angiotensin I converting enzyme (ACE) from human blood serum
RECORDED_ENDPOINT: IC50 (µM)
One number for each entry, in µM.

Solved entries (count: 3):
CC(=O)SCC(C)C(=O)Nc1ccccc1 (centres undefined); 2
CC1CCCC(C(=O)O)N1C(=O)CCS (centres undefined); 0.02
CC(=O)SCC(C)C(=O)NCc1ccccc1 (centres undefined); 200

Next, consider the following compound.
Lookup: Please give the measured IC50 for this compound: O=C(O)CCCNCP(=O)(O)CCc1ccccc1
Found: 100
